Protocol details: photoluminescence quantum yield (fraction); solvent given as SMILES
Setup conditions: in ClCCl
Measurement type: photoluminescence quantum yield

N#Cc1nc2cnc(N)nc2n1Cc1ccccc1 : 0.2
CC(C)c1ccc2ccc3c(C(C)C)ccc4ccc1c2c43 : 0.39
CC(=O)c1ccc(C#Cc2ccc3c(N(C)C)cc(-c4ccccc4)cc3c2)cc1 : 0.01
CCCCCCCCCCCCC(CCCCCCCCCC)Cn1c2cc(/C=C/c3nc4ccccc4s3)c3cccc4c5cccc6c(/C=C/c7nc8ccccc8s7)cc1c(c65)c2c34 (stereo not given) : 0.369
CCN(CC)c1ccc2c(-c3ccccc3C(=O)O)c3c([o+]c2c1)/C(=C/Nc1ccccc1)CCC3 : 0.6
CCCCCCN(c1ccccc1)c1ccc2c(c1)C(CC)(CC)c1cc(/C=C/c3ccc(/C=C(\C#N)C(=O)O)s3)ccc1-2 : 0.047
COC(=O)c1[nH]c(-c2ccc(Br)cc2)c2nnc3ccc(OC)cc3c12 : 0.114
c1ccc(-c2nc(-c3c[nH]c4ccccc34)n3ccccc23)cc1 : 0.162

[I] COc1ccc(C#Cc2ccc(C#N)cc2)cc1
[II] COc1ccc(-c2cc3c(s2)c(-c2ccccc2)cc(=O)n3C)cc1
Query: Min photoluminescence quantum yield? I | II In your reply, give the label of the chosen option.
Response: I
(I: 0.12, II: 0.46)

====

Protocol details: photoluminescence quantum yield (fraction); solvent given as SMILES
Setup conditions: in C1CCOC1
Measurement type: photoluminescence quantum yield

Consider the following illustrative entries.
F[B-]1(F)n2ccnc2-c2cccc[n+]21 : 0.44
COc1cc(/C=C/c2nc3ccccc3s2)c(OC)cc1/C=C/c1ccncc1 : 0.75
N#C/C(=C\c1ccc(C=C(c2ccccc2)c2ccccc2)cc1)c1ccc([N+](=O)[O-])cc1 : 0.046
N#C/C=C/c1ccc2ccc3cccc4ccc1c2c34 : 0.72
CSc1cc(-c2cc3cc4c5c(c3oc2=O)CCCN5CCC4)oc(=O)c1C#N : 0.9

[A] O=P1(c2ccccc2)C(c2ccc(C3=Cc4ccccc4P3(=O)c3ccccc3)cc2)=Cc2ccccc21 (centres undefined)
[B] C(=C1c2ccccc2CCc2ccccc21)c1ccc(-c2ccc(C=C3c4ccccc4CCc4ccccc43)cc2)cc1
Query: Between A and B , which one shows the smaller photoluminescence quantum yield number? Please identify the chosen entry by its label.
Response: B

[A] CC1=[N+]2C(=C(c3ccc(C(=C(c4ccccc4)c4ccccc4)c4ccccc4)cc3)c3ccc(C)n3[B-]2(F)F)C=C1
[B] C1=Cc2ccccc2C(=Cc2ccc(-c3ccc(C=C4c5ccccc5-c5ccccc54)cc3)cc2)c2ccccc21
[C] CC1(C)Cc2c(c3ccccc3c3nc4ccccc4nc23)O1
Query: // sort entries: photoluminescence quantum yield, high to low Output spec: labels arranged per the requested ranking.
Response: C, A, B
(C: 0.13, A: 0.038, B: 0.00016)

====

Protocol details: photoluminescence quantum yield (fraction); solvent given as SMILES
Setup conditions: in CC#N
Measurement type: photoluminescence quantum yield

Look over these answered cases.
CCN(CC)c1ccc2cc(-c3nc4ccccc4s3)c(=O)oc2c1 : 0.43
CC(=O)c1ccc(-c2nc3ccc(N(C)C)cc3s2)cc1 : 0.88

[a] O=C(O)c1ccc(-c2nc(-c3ccccc3)c3c4ccccc4ccn23)cc1
[b] COc1c(-c2ccc(N(C)C)cc2)oc2ccccc2c1=O
[c] CC1=N/C(=C\c2cccc(N(C)C)c2)C(=O)N1C
[d] O=S1c2ccc(-c3c4ccccc4cc4ccccc34)cc2-c2cc(-c3c4ccccc4cc4ccccc34)ccc21
Query: Returns the items ordered by photoluminescence quantum yield, from maximum to minimum. Hello, could you send the labels back in the order asked? Thank you.
Response: b, a, d, c

[P] COc1ccc(-n2nc(C#N)c(N3CCCCC3)n2)cc1
[Q] COC(=O)C(NC(=O)OC(C)(C)C)c1ccc2oc(-c3ccc(F)cc3)nc2c1 (stereo unspecified)
[R] COC1=[N+]2C(=C(c3ccccc3)c3ccc(OC)n3[B-]2(F)F)C=C1SC#N
Query: Arrange by photoluminescence quantum yield, high to low. Answer by listing the labels in the requested order.
Response: P, Q, R

[a] CCCCCCOc1ccc(-c2cnc(-c3nnc(-c4ccc(OCCCCCC)cc4)o3)o2)cc1
[b] Cc1ccc(-n2c(C)ccc2C)cc1
[c] CCOC(=O)c1sc(SC)c2c(=O)n(C)nnc12
[d] COC1=[N+]2C(=C(c3ccccc3)c3ccc(OC)n3[B-]2(F)F)C=C1
Query: List items by photoluminescence quantum yield in falling order. Use the labels to give the ranking in the order requested.
Response: a, d, c, b
